# assay.comment: BSK_3C_VCAM1: BioMAP Diversity Plus: 3C Assay for Vascular cell adhesion molecule 1 (VCAM1) Biomarker Activity (AID 2282999)
# measurement.parameters: BioMAP 3C HUVEC, VCAM1 ELISA, cytokine-stimulated; actives raise or lower the signal
The source made the active and inactive calls. Rule for the calls: active = hit-call score of the fitted dose curve at least 0.9, where 1 is the maximum; inactive = score below 0.9.
Classes used: active, inactive

{"columns": ["molecule", "group.label"],
 "data": [
  ["Oc1ccc(/C=C/c2cc(O)cc(O)c2)cc1", "inactive"],
  ["c1ccc2sc(SSN3CCOCC3)nc2c1", "active"],
  ["CC(Cl)COP(=O)(OCC(C)Cl)OCC(C)Cl (stereo not drawn)", "inactive"],
  ["CC(C)CCCCCOC(=O)CS", "inactive"],
  ["CCCCCCCCC(CO)CCCCCC (stereo not drawn)", "inactive"],
  ["Cc1c(O)cccc1O", "inactive"],
  ["C=CCCCCCCCCC=O", "inactive"],
  ["C=CC(=O)NC(C)(C)C", "inactive"]
]}
